Tested on: Sonic hedgehog protein (Shh)
Test: small-molecule binders of Shh protein, primary screen, biochemical, small-molecule microarray, 635/667 nm fluorescence (AID 1151);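 note: Shh protein binding to compounds spotted on small-molecule microarray slides; score combines spot fluorescence intensity with signal-to-noise across triplicate slides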
Conditions: small-molecule microarray binding, 635 nm fluorescence; higher = more signal
Give composite z-score for every item shown.
One number for each entry.

Worked cases, answers included:
molecule: CC(C)CN1C(=O)[C@@]2(Cc3ccccc31)c1ccccc1C(=O)N(Cc1ccccc1C(F)(F)F)[C@H]2c1ccc(CO)cc1
measure_name: composite z-score
test_result: -0.875
//
molecule: CCOC(=O)C1=C[C@@H](c2ccccc2)N(S(=O)(=O)c2ccc(C)cc2)[C@H]1c1cccc(Cl)c1
measure_name: composite z-score
test_result: 0.319
//
molecule: C=C(CCCC)C(=O)CC[C@@H](OC(=O)c1cccnc1)c1ccccc1OCCO
measure_name: composite z-score
test_result: 1.76
//
molecule: Cc1c(NC(=O)/C(C#N)=C/C=C/c2ccc(N(C)C)cc2)c(=O)n(-c2ccccc2)n1C
measure_name: composite z-score
test_result: 0.259
//
molecule: Cc1ccc(C(C)CC(O)C2C=CC3C(=O)N(c4ccccc4)C(=O)C3N2Nc2ccc(C(C)C)cc2)o1 (stereo not drawn)
measure_name: composite z-score
test_result: 0.154

Batch: composite z-score for all items listed.
1. CCCCC(=C=CC[C@@H](O)c1ccc(OCCO)cc1)C[C@@H](O)COCc1ccccc1
2. COC(=O)[C@H](Cc1ccccc1)N1CC(/C=C/C2CC2)=C[C@@H]1[C@@H](O)Cc1ccccc1

1: 1.38; 2: 1.81

State the recorded composite z-score for this entry: `COCC(=C=CC[C@H](O)c1ccc(OCCO)cc1)C[C@H](O)COCc1ccccc1`
1.55

###

Tested on: Human papillomavirus type 1a E7 protein (residues 1-88)
Assay: HPV1a E7 small-molecule binders, primary screen, biochemical, small-molecule microarray, residues 1-88, 635 nm (AID 1129)
Conditions: small-molecule microarray binding, fluorescence 635 nm; higher = more signal
Give composite z-score for every item shown.
Numbers only.

Worked cases, answers included:
molecule: CC(C)NC(=O)[C@@]1(C)c2ccccc2C(=O)N(C(C)C)[C@H]1c1ccc(CO)cc1
system_tested: Human papillomavirus type 1a E7 protein (residues 1-88)
composite z-score: -0.259
--
molecule: O=C(O)[C@]1(Cc2ccccc2)N=C(c2ccc(OCCCO)cc2)O[C@@H]1c1ccccc1
system_tested: Human papillomavirus type 1a E7 protein (residues 1-88)
composite z-score: -0.0591

Batch: composite z-score for all items listed.
1. C=CC[C@@]1(C(=O)N2CCCCC2)N=C(c2ccc(OCCCO)cc2)O[C@@H]1c1ccccc1
2. O=c1cccc(-c2ccc(C(F)(F)F)cc2)o1
3. COCCOC(=O)N1C(=O)[C@@]2(c3cc(C#CC4=CCCCC4)ccc31)[C@H](c1ccccc1OCCO)N1[C@H](c3ccccc3)[C@H](c3ccccc3)OC(=O)[C@H]1[C@@H]2C(=O)N1CCc2cc(OC)c(OC)cc2C1
4. CCOC(=O)C1=CC[C@@H](c2cc(Cl)ccc2Cl)N(S(=O)(=O)c2ccc(C)cc2)[C@H]1c1ccc(OC)cc1
5. CC(C)(C)OC(=O)CC[C@]1(C(=O)NCCN2CCOCC2)N=C(c2ccc(OCCCO)cc2)O[C@H]1c1ccccc1N=[N+]=[N-]
6. C=CCOC(=O)[C@H]1[C@@H]2C(=O)O[C@@H](c3ccccc3)[C@@H](c3ccccc3)N2[C@@H](c2ccc(OCCOC(=O)[C@H]3C[C@H]4C(=O)N[C@@H](Cc5ccccc5)C(=O)N4[C@H]3c3ccc(O)cc3)cc2)[C@]12C(=O)Nc1ccc(I)cc12
7. C=CCN1C(=O)[C@]2(CC=C)N=C(c3ccc(OCCCO)cc3)O[C@@H]2c2ccccc21
8. COCCCNC(=O)[C@@]1(Sc2ccc(C)cc2)CC(=O)N(C2Cc3ccccc3C2)[C@@H]1c1ccc(CO)cc1I

1: 1.2; 2: -0.955; 3: 1.2; 4: -0.199; 5: 1.15; 6: 1.14; 7: 1.16; 8: -1.01

Batch: composite z-score for all items listed.
1. CC(C)C(=C=CC[C@H](O)c1ccc(OCCO)cc1)C[C@H](O)c1cc(Cl)cc(Cl)c1O
2. COCC(=C=CC[C@H](O)c1cccc(OCCO)c1)C[C@H](O)c1ccccn1
3. CN(C)CCCNC(=O)[C@@]1(c2ccc([N+](=O)[O-])cc2)CC(=O)N(CC23CC4CC(CC(C4)C2)C3)[C@@H]1c1ccc(CO)cc1
4. CC[C@H]1C2=C3C(CC[C@H]4C(OCc5ccc(F)cc5C(F)(F)F)OC[C@](C)([C@@H]34)N(C(=O)OC(C)(C)C)C2)C2COC(=O)OCC21 (stereo not given in full)
5. C=C[C@H](COC(C)=O)NS(=O)(=O)c1ccc(Br)cc1

1: 1.09; 2: 0.273; 3: 1.19; 4: 1.17; 5: -0.575
